Molecular target: UniProt P10721
Sequence (P10721 26-976): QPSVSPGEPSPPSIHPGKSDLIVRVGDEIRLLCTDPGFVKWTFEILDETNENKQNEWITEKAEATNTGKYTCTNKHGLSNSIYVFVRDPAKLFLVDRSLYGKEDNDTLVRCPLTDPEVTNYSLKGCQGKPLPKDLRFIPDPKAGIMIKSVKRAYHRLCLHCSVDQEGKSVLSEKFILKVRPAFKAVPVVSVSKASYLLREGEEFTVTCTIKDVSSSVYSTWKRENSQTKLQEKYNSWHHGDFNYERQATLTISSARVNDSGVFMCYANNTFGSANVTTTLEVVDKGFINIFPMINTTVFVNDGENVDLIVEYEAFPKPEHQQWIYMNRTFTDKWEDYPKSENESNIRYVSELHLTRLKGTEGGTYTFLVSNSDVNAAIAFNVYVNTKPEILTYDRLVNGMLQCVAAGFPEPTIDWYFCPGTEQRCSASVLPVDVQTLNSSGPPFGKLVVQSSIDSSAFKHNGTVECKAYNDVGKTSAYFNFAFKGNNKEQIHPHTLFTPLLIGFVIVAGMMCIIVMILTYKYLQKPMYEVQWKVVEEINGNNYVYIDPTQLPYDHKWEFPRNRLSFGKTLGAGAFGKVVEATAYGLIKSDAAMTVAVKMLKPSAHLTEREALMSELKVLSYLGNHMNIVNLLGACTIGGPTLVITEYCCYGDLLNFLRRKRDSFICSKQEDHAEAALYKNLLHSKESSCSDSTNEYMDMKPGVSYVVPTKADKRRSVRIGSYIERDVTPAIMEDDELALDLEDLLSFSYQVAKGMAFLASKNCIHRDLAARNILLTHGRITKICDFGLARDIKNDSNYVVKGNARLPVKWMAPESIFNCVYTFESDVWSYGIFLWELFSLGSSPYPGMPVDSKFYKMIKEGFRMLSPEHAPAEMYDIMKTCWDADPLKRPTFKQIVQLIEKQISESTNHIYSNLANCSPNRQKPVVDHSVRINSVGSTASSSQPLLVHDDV
Measured Ki, listed per entry.

Some entries whose results are on file:
[Q] Dear colleague, I am looking for the recorded Ki of the following compound: c1ccc(-n2cnc(Nc3ccnc(N4CCOCC4)c3)n2)cc1 [Compound I-105]
[A] < 0.05 µM

[Q] // query: CCCN(CCO)c1cc(-n2cnc(Nc3ccccc3)n2)ccn1 [Compound I-58]
[A] < 0.05 µM

Okay, next one:
[Q] I would be grateful if you could share the reported Ki for CCNC(=O)Nc1ccc(Nc2ncn(-c3ccnc(N4C[C@@H](C)N(C(C)=O)[C@@H](C)C4)c3)n2)cc1 [Compound I-98] .
[A] 0.05 to 0.5 µM

====

pKi: −log10 of the molar value.
pKi values recorded for GSK-3β (AA 1-420) (Homo sapiens, UniProt P49841)

[Q] Please tell me: pKi of CC(=O)N1[C@H](C)CN(c2cc(-n3cnc(Nc4ccc(NC(=O)OCC(C)(C)C)cc4)n3)ccn2)C[C@@H]1C , system GSK-3β (AA 1-420) (Homo sapiens, UniProt P49841)?
[A] < 6.00

[Q] Same again, this time with CCCOC(=O)Nc1ccc(Nc2ncn(-c3ccnc(N4C[C@@H](C)N(C(C)=O)[C@@H](C)C4)c3)n2)cc1
[A] < 6.00

# input for lookup
[Q] What value of pKi on GSK-3β (AA 1-420) (Homo sapiens, UniProt P49841) does CCN(CC)CCNc1cc(-n2cnc(Nc3ccccc3)n2)ccn1 have?
[A] < 6.00

====

Form field: pKi (one value per entry).
Target: JAK-3 (Homo sapiens)
Sequence (P52333 whole entry): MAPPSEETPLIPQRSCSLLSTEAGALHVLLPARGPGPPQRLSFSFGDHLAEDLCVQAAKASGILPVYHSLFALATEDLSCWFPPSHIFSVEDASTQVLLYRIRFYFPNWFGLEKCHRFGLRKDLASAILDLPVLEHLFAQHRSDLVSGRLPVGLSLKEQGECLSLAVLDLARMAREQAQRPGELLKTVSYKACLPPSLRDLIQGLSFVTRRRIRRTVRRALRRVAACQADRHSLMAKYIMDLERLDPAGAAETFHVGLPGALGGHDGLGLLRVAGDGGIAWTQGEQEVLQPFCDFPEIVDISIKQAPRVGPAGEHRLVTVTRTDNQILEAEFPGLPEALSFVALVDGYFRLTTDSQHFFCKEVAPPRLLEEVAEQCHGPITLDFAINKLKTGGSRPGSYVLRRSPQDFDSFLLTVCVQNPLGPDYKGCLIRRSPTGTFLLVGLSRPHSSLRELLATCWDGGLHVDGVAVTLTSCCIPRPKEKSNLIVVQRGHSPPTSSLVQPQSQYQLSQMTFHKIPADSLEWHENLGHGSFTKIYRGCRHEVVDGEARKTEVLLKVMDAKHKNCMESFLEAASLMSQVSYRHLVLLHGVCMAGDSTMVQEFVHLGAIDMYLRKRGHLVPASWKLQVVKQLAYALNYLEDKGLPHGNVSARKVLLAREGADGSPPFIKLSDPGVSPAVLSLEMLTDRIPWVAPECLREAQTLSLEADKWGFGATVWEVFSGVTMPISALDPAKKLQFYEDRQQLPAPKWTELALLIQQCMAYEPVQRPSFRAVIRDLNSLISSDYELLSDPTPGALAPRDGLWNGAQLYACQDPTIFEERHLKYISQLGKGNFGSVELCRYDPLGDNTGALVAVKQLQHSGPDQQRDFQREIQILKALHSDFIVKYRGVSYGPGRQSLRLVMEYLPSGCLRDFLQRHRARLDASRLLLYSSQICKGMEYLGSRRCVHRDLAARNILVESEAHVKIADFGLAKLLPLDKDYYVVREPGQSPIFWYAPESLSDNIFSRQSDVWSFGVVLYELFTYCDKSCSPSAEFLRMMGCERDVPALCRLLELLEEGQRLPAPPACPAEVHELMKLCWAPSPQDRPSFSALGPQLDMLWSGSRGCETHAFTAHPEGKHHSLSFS
Test: JAK3 inhibition assay (ELISA, Poly (Glu, Ala, Tyr) coated plates)
Format: biochemical
Conditions: 2 μM ATP
Experimental: Compound inhibition of JAK was assayed by the method described by G. R. Brown, et al, Bioorg. Med. Chem. Lett. 2000, vol. 10, pp 575-579 in the following manner. […] Sulfuric acid (100 μL of 1M) was added to stop the reaction and the plate is read at 450 nm to obtain the optical densities for analysis to determine Ki values.
pKi: −log10 of the molar value.

[Q] Entry O=c1[nH]c2ccccc2n1C1CCN(c2cc(-n3cnc(Nc4ccccc4)n3)ccn2)CC1 : reported pKi = ?
[A] < 6.00

[Q] Another: CCCN(CCO)c1cc(-n2cnc(Nc3ccccc3)n2)ccn1
[A] 6.00 to 8.00

[Q] Next: c1ccc(-n2cnc(Nc3ccc4c(c3)OCCO4)n2)cc1
[A] < 6.00

Further cases:
[Q] I am curious: what pKi value has been reported for CC(C)CCN(C)c1cc(-n2cnc(Nc3ccccc3)n2)ccn1 ?
[A] 6.00 to 8.00

[Q] What would you report for CCN(CCO)c1cc(-n2cnc(Nc3ccccc3)n2)ccn1 ?
[A] 6.00 to 8.00

[Q] Also check CN1C(C)(C)CC(Nc2cc(-n3cnc(Nc4ccccc4)n3)ccn2)CC1(C)C
[A] < 6.00

[Q] Now try CC(=O)N1[C@H](C)CN(c2cc(-n3cnc(Nc4ccccc4)n3)ccn2)C[C@@H]1C .
[A] > 8.00

[Q] What about this compound? O=C(Nc1cc(-n2cnc(Nc3ccccc3)n2)ccn1)C1CCCCC1
[A] < 6.00

[Q] Next entry: c1ccc(Nc2ncn(-c3ccnc(N4CCCCCCC4)c3)n2)cc1
[A] 6.00 to 8.00
